Tested on: DLD-1
Experiment: Cytotoxicity against human DLD1 cells after 96 hrs by MTT assay
Format: functional, cell-based
Design: unit not given here
// map IC50 to label using LOW = under 10, MEDIUM = from 10 up to 30, HIGH = 30 and over

Which category does the recorded IC50 put "OCc1cc(Br)c(O)c(O)c1Br" in?
MEDIUM

Which category does the recorded IC50 put "OCc1cc(O)c(O)c(Br)c1" in?
HIGH

Which category does the recorded IC50 put "O=Cc1cc(Br)c(O)c(O)c1Br" in?
HIGH

Which category does the recorded IC50 put "CCCOCc1cc(O)c(O)c(Br)c1Br" in?
MEDIUM

Which category does the recorded IC50 put "COCc1cc(O)c(O)c(Br)c1" in?
HIGH

Which category does the recorded IC50 put "COc1cc(C=O)cc(Br)c1O" in?
HIGH

Which category does the recorded IC50 put "CCOCc1cc(Br)c(O)c(O)c1Br" in?
LOW

Which category does the recorded IC50 put "CCCOCc1cc(O)c(O)c(Br)c1" in?
MEDIUM

Which category does the recorded IC50 put "CCOCc1cc(O)c(O)c(Br)c1" in?
HIGH

Which category does the recorded IC50 put "CCOCc1cc(O)c(O)c(Br)c1Br" in?
MEDIUM

Which category does the recorded IC50 put "Oc1c(O)c(Br)c(Br)c(Br)c1Br" in?
LOW

Which category does the recorded IC50 put "CCCOCc1cc(Br)c(O)c(O)c1Br" in?
LOW

Which category does the recorded IC50 put "COCc1cc(Br)c(O)c(O)c1Br" in?
LOW

Which category does the recorded IC50 put "O=Cc1cc(O)c(O)c(Br)c1" in?
MEDIUM
